Sourced from PubChem BioAssay AID2060609

Test system: 855422-203-R-J1-PDC complex spheroids, viability
Assay: Anticancer human tumor 855422-203-R-J1-PDC patient-derived bladder carcinoma cell line growth inhibition [CLK]
Conditions: second compound 10 µM; first compound 0.003 µM; active compounds read low
Reported Metric: viability, T/C (%)
The answer is to be given in %; state only the numeric part.

Example cases with answers are listed next.
C=CC(=O)Nc1cc(Nc2nccc(-c3cn(C)c4ccccc34)n2)c(OC)cc1N(C)CCN(C)C + CNC(=O)c1ccc(Nc2nc(OC3CCCC3)c3c(-c4ccc5nc(C)oc5c4)c[nH]c3n2)c(OC)c1 ... 21.6
CC(C)CC(NC(=O)C(Cc1ccccc1)NC(=O)c1cnccn1)B(O)O (centres undefined) + CNC(=O)c1ccc(Nc2nc(OC3CCCC3)c3c(-c4ccc5nc(C)oc5c4)c[nH]c3n2)c(OC)c1 ... 0.15
CC(C)CC(NC(=O)C(Cc1ccccc1)NC(=O)c1cnccn1)B(O)O (centres undefined) + CN1CCN(c2cc(C(=O)Nc3cc4cc(-c5cnn(C)c5)ccc4cn3)ccn2)CC1 ... 0.19

Ask | Query viability, T/C on 855422-203-R-J1-PDC complex spheroids, viability for C=CC(=O)Nc1cc(Nc2nccc(-c3cn(C)c4ccccc34)n2)c(OC)cc1N(C)CCN(C)C + CN1CCN(c2cc(C(=O)Nc3cc4cc(-c5cnn(C)c5)ccc4cn3)ccn2)CC1
Reply | 1.47

* * *

System: 855422-203-R-J1-PDC complex spheroids, viability
Experiment: Anticancer human tumor 855422-203-R-J1-PDC cell line growth inhibition [CLK]; active = viability on the fitted dose curve at most 10% of control; inactive = the rest;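 also: spheroids exposed to drugs for seven days before readout; 100% = DMSO vehicle control wells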
Details: second compound 0.0316 µM; first compound 0.000949 µM
Allowed answers: class 1 (active), class 0 (inactive)

C=CC(=O)Nc1cc(Nc2nccc(-c3cn(C)c4ccccc34)n2)c(OC)cc1N(C)CCN(C)C + CNC(=O)c1ccc(Nc2nc(OC3CCCC3)c3c(-c4ccc5nc(C)oc5c4)c[nH]c3n2)c(OC)c1 ... class 0
CC(C)CC(NC(=O)C(Cc1ccccc1)NC(=O)c1cnccn1)B(O)O (centres undefined) + CNC(=O)c1ccc(Nc2nc(OC3CCCC3)c3c(-c4ccc5nc(C)oc5c4)c[nH]c3n2)c(OC)c1 ... class 1
CC(C)CC(NC(=O)C(Cc1ccccc1)NC(=O)c1cnccn1)B(O)O (centres undefined) + CN1CCN(c2cc(C(=O)Nc3cc4cc(-c5cnn(C)c5)ccc4cn3)ccn2)CC1 ... class 1

We now examine a further molecule.
Ask | Which result was noted for this molecule in the test: C=CC(=O)Nc1cc(Nc2nccc(-c3cn(C)c4ccccc34)n2)c(OC)cc1N(C)CCN(C)C + CN1CCN(c2cc(C(=O)Nc3cc4cc(-c5cnn(C)c5)ccc4cn3)ccn2)CC1
Reply | class 0

* * *

System: 855422-203-R-J1-PDC complex spheroids, viability
Experiment: Anticancer human tumor 855422-203-R-J1-PDC cell line growth inhibition [CLK]; active means viability on the fitted dose curve at most 10% of control; inactive means the rest;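 also: spheroids exposed to drugs for seven days before readout; 100% = DMSO vehicle control wells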
Settings: second compound 0.1 µM; first compound 0.0949 µM
Allowed answers: t for active, f for inactive

Study these solved cases before continuing.
NC(=O)C(=Cn1cnc(-c2cc(C(F)(F)F)cc(C(F)(F)F)c2)n1)c1cncnc1 + CN1CCN(c2cc(C(=O)Nc3cc4cc(-c5cnn(C)c5)ccc4cn3)ccn2)CC1 ... f
CC(C)CC(NC(=O)C(Cc1ccccc1)NC(=O)c1cnccn1)B(O)O (stereo unspecified) + CN1CCN(c2cc(C(=O)Nc3cc4cc(-c5cnn(C)c5)ccc4cn3)ccn2)CC1 ... t

Ask | Which result was noted for this molecule in the test: C=CC(=O)Nc1cc(Nc2nccc(-c3cn(C)c4ccccc34)n2)c(OC)cc1N(C)CCN(C)C + CNC(=O)c1ccc(Nc2nc(OC3CCCC3)c3c(-c4ccc5nc(C)oc5c4)c[nH]c3n2)c(OC)c1
Reply | f

Ask | Which result was noted for this molecule in the test: CC(C)CC(NC(=O)C(Cc1ccccc1)NC(=O)c1cnccn1)B(O)O (stereo unspecified) + CNC(=O)c1ccc(Nc2nc(OC3CCCC3)c3c(-c4ccc5nc(C)oc5c4)c[nH]c3n2)c(OC)c1
Reply | t

Ask | Which result was noted for this molecule in the test: C=CC(=O)Nc1cc(Nc2nccc(-c3cn(C)c4ccccc34)n2)c(OC)cc1N(C)CCN(C)C + CN1CCN(c2cc(C(=O)Nc3cc4cc(-c5cnn(C)c5)ccc4cn3)ccn2)CC1
Reply | f

Ask | Which result was noted for this molecule in the test: NC(=O)C(=Cn1cnc(-c2cc(C(F)(F)F)cc(C(F)(F)F)c2)n1)c1cncnc1 + CNC(=O)c1ccc(Nc2nc(OC3CCCC3)c3c(-c4ccc5nc(C)oc5c4)c[nH]c3n2)c(OC)c1
Reply | f
